Origin of measurements: ChEMBL document CHEMBL2046309

Below, each entry is listed with its recorded IC50.
Test system: U-937
Experiment: Cytotoxicity against human U937 cells assessed as decrease in cell number after 24 hrs by MTT assay
Type: functional, cell-based
Settings: U-937, 24 h
value.kind: IC50 (µg/mL)

molecule: C#CCOc1c(Br)cc(Br)cc1Oc1ccc(Br)cc1Br
unit.tag: µg/mL
reported.measurement: 29.5
//
molecule: BrCCCCOc1c(Br)cc(Br)cc1Oc1ccc(Br)cc1Br
unit.tag: µg/mL
reported.measurement: 29
//
molecule: OCCOc1c(Br)cc(Br)cc1Oc1ccc(Br)cc1Br
unit.tag: µg/mL
reported.measurement: 34.5
//
molecule: BrCCOc1c(Br)cc(Br)cc1Oc1ccc(Br)cc1Br
unit.tag: µg/mL
reported.measurement: 32.5
//
molecule: C=CCOc1c(Br)cc(Br)cc1Oc1ccc(Br)cc1Br
unit.tag: µg/mL
reported.measurement: 29
//
molecule: CC(C)(C)C(=O)C(C#N)Oc1c(Br)cc(Br)cc1Oc1ccc(Br)cc1Br (configuration not stated)
unit.tag: µg/mL
reported.measurement: 32.5
//
molecule: COc1c(Br)cc(Br)cc1Oc1ccc(Br)cc1Br
unit.tag: µg/mL
reported.measurement: 34.5
//
molecule: CN1CCN(CCCCCOc2c(Br)cc(Br)cc2Oc2ccc(Br)cc2Br)CC1
unit.tag: µg/mL
reported.measurement: 49.1
//
molecule: Brc1ccc(Oc2cc(Br)cc(Br)c2OCc2ccccc2)c(Br)c1
unit.tag: µg/mL
reported.measurement: 29
//
molecule: OCCCOc1c(Br)cc(Br)cc1Oc1ccc(Br)cc1Br
unit.tag: µg/mL
reported.measurement: 32.3
//
molecule: Cc1ccc(S(=O)(=O)n2nc(N3CCN(CCCCCOc4c(Br)cc(Br)cc4Oc4ccc(Br)cc4Br)CC3)c3cc([N+](=O)[O-])ccc32)cc1
unit.tag: µg/mL
reported.measurement: 68.5
//
molecule: CCOC(=O)C(C)Oc1c(Br)cc(Br)cc1Oc1ccc(Br)cc1Br (configuration not stated)
unit.tag: µg/mL
reported.measurement: 39.5
//
molecule: BrCCCCCCOc1c(Br)cc(Br)cc1Oc1ccc(Br)cc1Br
unit.tag: µg/mL
reported.measurement: 33.8
//
molecule: COc1ccccc1N1CCN(CCCCCOc2c(Br)cc(Br)cc2Oc2ccc(Br)cc2Br)CC1
unit.tag: µg/mL
reported.measurement: 37.5
//
molecule: Brc1ccc(Oc2cc(Br)cc(Br)c2OCCCCCN2CCN(C/C=C/c3ccccc3)CC2)c(Br)c1
unit.tag: µg/mL
reported.measurement: 32.7
//
molecule: BrCCCOc1c(Br)cc(Br)cc1Oc1ccc(Br)cc1Br
unit.tag: µg/mL
reported.measurement: 30.3
//
molecule: CC(C)(C)OC(=O)N1CCN(CCCCCOc2c(Br)cc(Br)cc2Oc2ccc(Br)cc2Br)CC1
unit.tag: µg/mL
reported.measurement: 35.5

---

System: HL-60
Experiment: Cytotoxicity against human HL60 cells assessed as decrease in cell number after 24 hrs by MTT assay
Assay type: functional, cell-based
Conditions: HL-60, 24 h

compound: C#CCOc1c(Br)cc(Br)cc1Oc1ccc(Br)cc1Br
IC50: 29.7 µg/mL
//
compound: OCCCOc1c(Br)cc(Br)cc1Oc1ccc(Br)cc1Br
IC50: 29.9 µg/mL
//
compound: CC(C)(C)C(=O)C(C#N)Oc1c(Br)cc(Br)cc1Oc1ccc(Br)cc1Br (centres undefined)
IC50: 29.2 µg/mL
//
compound: CC(=O)Oc1c(Br)cc(Br)cc1Oc1ccc(Br)cc1Br
IC50: 29.9 µg/mL
